meta.source: ChEMBL document CHEMBL3352174

Molecular target: Retinoic acid receptor RXR-alpha (Homo sapiens, UniProt P19793)
Sequence (P19793 whole entry, the tested form may be a part): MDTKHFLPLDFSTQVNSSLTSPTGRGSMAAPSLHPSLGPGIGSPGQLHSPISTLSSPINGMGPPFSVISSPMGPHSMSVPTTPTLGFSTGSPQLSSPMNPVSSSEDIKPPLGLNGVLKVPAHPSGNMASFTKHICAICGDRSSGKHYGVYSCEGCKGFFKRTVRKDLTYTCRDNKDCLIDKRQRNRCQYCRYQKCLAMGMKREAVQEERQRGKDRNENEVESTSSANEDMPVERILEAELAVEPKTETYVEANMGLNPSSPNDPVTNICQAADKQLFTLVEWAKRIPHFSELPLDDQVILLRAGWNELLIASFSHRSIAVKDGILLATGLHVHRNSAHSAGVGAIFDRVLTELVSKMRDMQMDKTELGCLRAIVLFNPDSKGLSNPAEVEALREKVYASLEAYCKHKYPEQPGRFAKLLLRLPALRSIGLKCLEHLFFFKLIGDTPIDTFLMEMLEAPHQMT
Test: Antagonist activity against Myc-tagged RXRalpha ligand binding domain (unknown origin) expressed in human HEK293T cells assessed as inhibition of 9-cis-RA-induced receptor transactivation after 18 hrs by luciferase reporter gene based mammalian one-hybrid assay
measure_name: pIC50
Quick note: pIC50 means taking -log10 of the concentration in moles per liter.

QUERY: Any idea what pIC50 was measured for Cc1cc(=O)oc2c(/C=N/NC(=O)CSc3nc4ccccc4s3)c(O)ccc12 ?
RESULT: 5.61
